Measured values drawn from PubChem BioAssay for this set.

For each of the compounds below, state its viability.
METHOD: reducers of endogenous Her2 protein level, primary screen, SKBR3 breast tumor cells, AlphaScreen, ATP viability (AID 461);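 also: percent of carrier control wells set as 100% viability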
TEST CONDITIONS: 18-24 h, measured here: SKBR3 viability, ATP luminescence, at 10 µM
API: value field is a number in %; no unit string.

So for COc1ccccc1CN1C(=O)CCC1(C)C(=O)NC1CCCCCC1 (centres undefined) , the logged viability turned out to be 83

CC1(C)CC(=O)C(C(=O)CCCCC(=O)C2C(=O)CC(C)(C)CC2=O)C(=O)C1 has a reported viability of 99.5

Documented viability of Cc1cccc2cc(CN(CC3CCCO3)C(=O)c3cnccn3)c(=O)[nH]c12 (centres undefined) : 116

# viability of COc1ccc(-c2cn3c(C)c(C(=O)Nc4cc(NC(C)=O)ccc4OC)sc3n2)cc1 = 92

----------
Provide the reported RAM network inhibition of each item.
METHOD: RAM signaling pathway blockade in yeast – S. cerevisiae, Pdr1DBD-CYC8 efflux-inhibited sensitized strain, primary screen (AID 1298);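 also: 0% = DMSO untreated cells without growth and 100% = 10 µM 1-NA-PP1 full growth; higher means more yeast growth rescued from 5-FOA killing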
TEST CONDITIONS: S. cerevisiae cbk1-as DSE1-URA3 strain, 5-FOA growth OD615, 2 d; at 50 µM; stronger effect = higher value
Express it in %; write the number only.

Entry under test: CCOC(=O)C1CCN(C(=O)c2oc3ccc(S(=O)(=O)N4CCCCCC4)cc3c2C)CC1 . Its RAM network inhibition was 0.3

Value of measured RAM network inhibition for the entry CC(Oc1ccc(Cl)cc1Cl)C(=O)NCc1ccncc1 (centres undefined) : 1.89

Notebook: C[C@@H](NC(=O)c1coc(=O)c(Br)c1)c1ccccc1 , RAM network inhibition read as 7.48

For Cc1csc2nc(CNC(=O)C3CC=CCC3C(=O)O)cn12 (centres undefined) the compound record lists RAM network inhibition as -0.42

----------
METHOD: growth suppression of PTEN-deleted HCT116, pilot screen, cell-based, HCT116 clonal line, CellTiter-Glo (AID 824);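 also: 0% = 20 µM Hyamine control and 100% = vehicle cell control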
TEST CONDITIONS: 60 h, at 10 µM, stronger effect = lower value
Inconclusive results are not listed.
VALUE KIND: viability (%)
Your answer is read as %, so omit the unit and give the number.

response.value for O=C1C(C=NCCN2CCOCC2)=C(O)c2ccccc21 (field: viability) = 92.4

The recorded viability for CSCCC1(C(=O)O)NC(c2ccccc2O)C2C(=O)N(C(C)C)C(=O)C21 (centres undefined) is 94.7

# viability of c1ccc(Nc2nc(N3CCOCC3)nc(N3CCOCC3)n2)cc1 = 67.2

What the record says about O=C1C(C=NCc2ccco2)=C(O)c2ccccc21 : viability is 89.9

The compound O=C1CC(N2CCN(C/C=C/c3ccccc3)CC2)C(=O)N1CCc1ccccc1 (centres undefined) showed viability equal to 77.6

The compound listed as CCSc1nnc(NC(=O)C(C)C)s1 shows viability equal to 109

Measured viability of CCc1ccc(Nc2cc(C)nc3nc(C)nn23)cc1 : 96

Recorded viability (compound CCNC(=O)c1c(N)sc2c1CCCCC2 ): 100

For this compound ( CCc1nnc2n1N=C(c1ccc(-c3cc(Cl)ccc3Cl)o1)CS2 ), measured viability is 22.4

viability reported for this compound CCOC(=O)Cc1nnc(NC(=O)CSc2nncn2C)s1 : 94.5

For reference, reported viability for Cc1sc2ncnc(SCC(=O)c3cccs3)c2c1C stands at 94.3

Quick note, viability for Cc1ccnc(SCCn2c(N3CCCCC3)nc3c2c(=O)[nH]c(=O)n3C)n1 landed at 107

Entry under test: CC1(C)CC(=O)C=C(Nc2cc(-c3ccccc3)[nH]n2)C1 . Its viability was 93.4

For reference, reported viability for Cc1ccc(N=Cc2c(O)n(C)c(=O)n(C)c2=O)nc1 stands at 99.2
